ASSAY_TARGET: T1, human CLDN9 protein (human, UniProt O95484 1-217)
T1 construct: whole, on cells; also called hCLDN9; CLND9
T1 sequence (looked up): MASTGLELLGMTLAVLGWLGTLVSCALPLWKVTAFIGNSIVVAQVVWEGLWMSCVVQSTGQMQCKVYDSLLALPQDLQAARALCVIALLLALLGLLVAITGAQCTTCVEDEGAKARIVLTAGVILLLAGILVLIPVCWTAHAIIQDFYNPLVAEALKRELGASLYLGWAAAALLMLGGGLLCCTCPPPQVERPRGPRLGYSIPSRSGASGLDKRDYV
MEASUREMENT_DESCRIPTION: flow cytometry on cells overexpressing human CLDN9; 10 µg/mL purified antibody, Alexa 647 anti-mouse secondary; single point
REPORTED_METRIC: MFI
No unit in the answer, only the number.

INSERT INTO measurements (binder, reported_metric, value_reported) VALUES
  ('SC27.203 (antibody, V domains shown, also called SC27.203 mouse monoclonal anti-CLDN antibody) VH: EVQLQQSGPELVKPGASVKISCKTSGYTFTENIIHWVKQSHGKSLEWIGGINPINGGTSYNQKFKGKATLTVDKSSSTAYMELRSLTSEDSAVYYCARGITTSPYAMDYWGQGTSVTVSS VL: DIQMTQSSSSFSVSLGDRVTITCKASEDIYNRLAWYQQNPGNTPRLLMSGATSLETGVPSRFSGSGSGKDYTLSITSLQIEDVSTYYCQQYWSTPPTFGGGTRLEIK', 'MFI', 587);

The record that follows has no MFI shown yet.
Looking up SC27.103 mouse monoclonal anti-CLDN antibody (antibody, V domains shown) VH: EVHLQQSGPELVKPGGSMKISCKASGYSFTGYTMNWVKQSHGKNLEWIGLFNPYNGGTSYNQKFKGKATLTVDKSSSTAYMELLSLTSEDSAVYYCARCYRYDGLDYWGQGTTLTVSS VL: QIVLTQSPAIMSASLGERVTMTCTASSSVSSSYLHWYQQKPGSSPTLWIYRTSDLASGVPARFSGSGSGTSYSLTISSMEAEDAATYYCHQYHRSPWTFGGGTRLEIK , I found its MFI recorded as 12100
